Task for the reader: assign each of the following molecules its reported pEC50.
Test system: CEM cells HIV-1 protection, formazan growth assay
Assay: NCI AIDS Antiviral Assay
Method: The ability of compounds to protect human CEM cells from HIV-1 infection is measured as a screen for new compounds capable of inhibiting the HIV virus. Five concentrations of drug were tested on uninfected and infected cells and cell growth was measured using a soluble formazan assay. […] Compounds that provided at least 50% protection were retested. Compounds that provided at least 50% protection on retest were listed as moderately active. […]
pEC50: −log10 of the molar value. Where a SMILES comes first, the peptide text is derived from it. The star is where a group is joined. Fmoc = O=C(OCC1c2ccccc2-c2ccccc21)*; OtBu = CC(C)(C)O*

Take a look at these entries with their results.
CCOC(=O)C(=C/C=C/NCCc1c[nH]c2ccccc12)C(=O)OCC
< 4.97
CC(C)C(NC(=O)OCC1c2ccccc2-c2ccccc21)C(=O)NC(CCC(=O)OC(C)(C)C)C(=O)OC(C)(C)C (stereo unspecified) (Fmoc-Val-Glu(OtBu)-OtBu; configuration not given here)
< 3.70
O=[N+]([O-])c1cccc(C2N3CCCCC3[C@@H]3c4[nH]c5ccccc5c4CCN23)c1 (stereo partly specified)
< 4.73
COc1ccc(N=NC(=O)NC(CC(C)C)C(N)=O)cc1 (stereo unspecified)
< 3.70
Cc1cccc(/C=N/NC(=S)N2CCCC2)n1
< 4.00
N#Cc1nc(-c2ccco2)oc1N
< 3.70

Batch request: pEC50 per item, same order as input.
1. CCC1(O)CCCC2C3CCC4CC(=O)CCC4(C)C3C(=O)CC21C (stereo unspecified)
2. C/C(=N\N=C(N)N)C(CN1CCCCC1)C(c1ccccc1)c1c(O)c2ccccc2oc1=O (stereo unspecified)

### Response
< 3.70
< 4.28

Batch request: pEC50 per item, same order as input.
1. CC(=O)Oc1ccccc1-c1cc2ccccc2oc1=O
2. COC(=O)[C@@H](Cc1ccccc1)N1O[C@]12CCCC[C@@H]2NC(=O)OC(C)(C)C (stereo partly specified)

### Response
["< 3.70", "< 3.70"]
